- measurement.protocol: Toxicity in ICR mouse assessed as survival rate at 200 mg/kg, po observed for 14 days (reference value: 100 %)
- Assay type: organism-based
- condition: in vivo, time 14 day
endpoint: survival at 336 h (%)
Give a bare numeral; the unit % is implied.

Query :: I have this molecule here, CC(C)[C@]12O[C@H]1[C@@H]1O[C@]13[C@]1(O[C@H]1C[C@H]1C4=C(CC[C@@]13C)C(=O)OC4)[C@@H]2Oc1no[n+]([O-])c1S(=O)(=O)c1ccccc1 , and I need its recorded survival at 336 h.
Result :: 10
